System: Streptococcus pneumoniae A28272
assay_comment: MIC, broth micro dilution assay (NCCLS)
Assay type: cell-based
measurement_conditions: 50% Mueller-Hinton medium and 50% Todd Hewitt medium, 35° C., 18 hours
metric_name: MIC (μg/mL) Streptococcus pneumoniae A28272 (µg/mL)
Write it as a number; the unit µg/mL goes unstated.

Use the examples below as a reference point.
C=C(NC(=O)c1csc(-c2nc3c(cc2OC(=O)c2ccc(Br)cc2)-c2nc(cs2)C(=O)NC(C(C)O)C(=O)NC(=C(C)OC)c2nc(cs2)C(=O)NC2c4nc(cs4)C(=O)NC(COC(=O)c4c5c6c(cccc6n4O)COC(=O)C(OC4CC(C)(O)C(N(C)C)C(C)O4)C2OC5)c2nc-3cs2)n1)C(N)=O (stereo not drawn)    0.015
C=C(NC(=O)c1csc(-c2nc3c(cc2OCC(=O)OC)-c2nc(cs2)C(=O)NC(C(C)O)C(=O)NC(=C(C)OC)c2nc(cs2)C(=O)NC2c4nc(cs4)C(=O)NC(COC(=O)c4c5c6c(cccc6n4OCC(=O)OC)COC(=O)C(OC4CC(C)(O)C(N(C)C)C(C)O4)C2OC5)c2nc-3cs2)n1)C(N)=O (stereo not drawn)    0.003

Now look at this entry.
Challenge: Determine reported MIC (μg/mL) Streptococcus pneumoniae A28272 for C=C(NC(=O)c1csc(-c2nc3c(cc2OCc2ccccc2)-c2nc(cs2)C(=O)NC(C(C)O)C(=O)NC(=C(C)OC)c2nc(cs2)C(=O)NC2c4nc(cs4)C(=O)NC(COC(=O)c4c5c6c(cccc6n4OCc4ccccc4)COC(=O)C(OC4CC(C)(O)C(N(C)C)C(C)O4)C2OC5)c2nc-3cs2)n1)C(N)=O (stereo not drawn) ; test system: Streptococcus pneumoniae A28272.
Response given: 0.001

* * *

Listed next: entries and their corresponding MIC (μg/mL) Streptococcus pneumoniae A28272.
Test system: Streptococcus pneumoniae A28272
assay_comment: MIC, broth micro dilution assay (NCCLS)
Assay type: cell-based
measurement_conditions: 50% Mueller-Hinton medium and 50% Todd Hewitt medium, 35° C., 18 hours
Experimental: The serial broth dilution method used Mueller-Hinton medium except for the Streptococcus pneumoniae which was tested in 50% Mueller-Hinton medium and 50% Todd Hewitt medium. The final bacterial inoculate contained approximately 5×10^5 cfu/well and was run on microtiter plates. The volume of each well was 100 μL and the plates were incubated at 35° C. for 18 hours in ambient air. The MIC was defined as the lowest drug concentration that prevented visible growth.

C=C(NC(=O)c1csc(-c2nc3c(cc2OCC(=O)OC(C)(C)C)-c2nc(cs2)C(=O)NC(C(C)O)C(=O)NC(=C(C)OC)c2nc(cs2)C(=O)NC2c4nc(cs4)C(=O)NC(COC(=O)c4c5c6c(cccc6n4OCC(=O)OC(C)(C)C)COC(=O)C(OC4CC(C)(O)C(N(C)C)C(C)O4)C2OC5)c2nc-3cs2)n1)C(N)=O (centres unmarked)    0.007 µg/mL

Challenge: Please list MIC (μg/mL) Streptococcus pneumoniae A28272 recorded for the molecule C=C(NC(=O)c1csc(-c2nc3c(cc2OP(=O)(O)OCCCl)-c2nc(cs2)C(=O)NC(C(C)O)C(=O)NC(=C(C)OC)c2nc(cs2)C(=O)NC2c4nc(cs4)C(=O)NC(COC(=O)c4c5c6c(cccc6n4OP(=O)(O)OCCCl)COC(=O)C(OC4CC(C)(O)C(N(C)C)C(C)O4)C2OC5)c2nc-3cs2)n1)C(N)=O (centres unmarked)
Response given: 0.5 µg/mL

Source listed as patent US7022667B2.
